Test: Absorbance and fluorescence properties in the presence and absence of Ca2+
Type: physicochemical
Settings: excess Ca
Measured Fluorescence maxima, excitation, with excess Ca accompanies every entry in the list below.
Your answer is read as nm, so omit the unit and give the number.

Return the recorded Fluorescence maxima, excitation, with excess Ca value; entry: `Cc1ccc(N(CC(=O)O)CC(=O)O)c(OCCOc2cc(-c3c4cc(Cl)c(=O)cc-4oc4cc(O)c(Cl)cc34)ccc2N(CC(=O)O)CC(=O)O)c1`
506

Return the recorded Fluorescence maxima, excitation, with excess Ca value; entry: `Cc1ccc(N(CC(=O)O)CC(=O)O)c(OCCOc2cc(-c3c4ccc(=O)cc-4oc4cc(O)ccc34)c(O)cc2N(CC(=O)O)CC(=O)O)c1`
499

Return the recorded Fluorescence maxima, excitation, with excess Ca value; entry: `Cc1ccc(N(CC(=O)O)CC(=O)O)c(OCCOc2cc(-c3c4ccc(=O)cc-4oc4cc(O)ccc34)ccc2N(CC(=O)O)CC(=O)O)c1`
493

Return the recorded Fluorescence maxima, excitation, with excess Ca value; entry: `Cc1ccc(N(CC(=O)O)CC(=O)O)c(OCCOc2cc(-c3c4ccc(=[N+](C)C)cc-4oc4cc(N(C)C)ccc34)ccc2N(CC(=O)O)CC(=O)O)c1`
553

###

Experiment: Absorbance and fluorescence properties in the presence and absence of Ca2+
Assay type: physicochemical
Conditions: excess Ca vs. zero Ca
Method: FIG. 4. Excitation (A) and emission (B) spectra for fluo-3 at 22°±2° C. in buffers with free Ca^2+ values ranging from <1 nM to 58 microM. […] The "O" Ca spectrum was recorded, then to reach n mM CaEGTA, (10-n) mM EGTA, n=1-10, aliquots of 3.5/(11-n) ml were iteratively discarded and replaced by equal volumes of 100 mM KCl, 10 mM K-MOPS, 10 mM K2 CaEGTA, 15 microM fluo-3, pH 7.0. […] FIG. 6. The product of fluorescence quantum efficiency and extinction coefficient vs. free [Ca^2+ ] […]
Measured Fluorescence ratio, excess vs. zero Ca accompanies every entry in the list below.
In your answer, state the number alone without any accompanying words.

Please review the entries below; each comes with its answer.
molecule	measured quantity	result number
Cc1ccc(N(CC(=O)O)CC(=O)O)c(OCCOc2cc(-c3c4ccc(=[N+](C)C)cc-4oc4cc(N(C)C)ccc34)ccc2N(CC(=O)O)CC(=O)O)c1 [rhod-2]	Fluorescence ratio, excess vs. zero Ca	3.4
Cc1ccc(N(CC(=O)O)CC(=O)O)c(OCCOc2cc(-c3c4ccc(=O)cc-4oc4cc(O)ccc34)ccc2N(CC(=O)O)CC(=O)O)c1 [fluo-2]	Fluorescence ratio, excess vs. zero Ca	31

Return the recorded Fluorescence ratio, excess vs. zero Ca value; entry: Cc1ccc(N(CC(=O)O)CC(=O)O)c(OCCOc2cc(-c3c4ccc(=O)cc-4oc4cc(O)ccc34)c(O)cc2N(CC(=O)O)CC(=O)O)c1 [fluo-1]
3.3

###

Measured pKd accompanies every entry in the list below.
Conditions: read-out: Effective dissociation constant Kd for Ca^2+; pH 7.0-7.5; ionic strengths 0.1-0.15
Keep it numeric: pKd is minus log10 of the concentration in mol/L.

Please review the entries below; each comes with its answer.
Cc1ccc(N(CC(=O)O)CC(=O)O)c(OCCOc2cc(-c3c4cc(Cl)c(=O)cc-4oc4cc(O)c(Cl)cc34)ccc2N(CC(=O)O)CC(=O)O)c1 6.35
Cc1ccc(N(CC(=O)O)CC(=O)O)c(OCCOc2cc(-c3c4ccc(=[N+](C)C)cc-4oc4cc(N(C)C)ccc34)ccc2N(CC(=O)O)CC(=O)O)c1 6.00
Cc1ccc(N(CC(=O)O)CC(=O)O)c(OCCOc2cc(-c3c4ccc(=O)cc-4oc4cc(O)ccc34)c(O)cc2N(CC(=O)O)CC(=O)O)c1 6.15

Query compound follows.
Return the recorded pKd value; entry: `Cc1ccc(N(CC(=O)O)CC(=O)O)c(OCCOc2cc(-c3c4ccc(=O)cc-4oc4cc(O)ccc34)ccc2N(CC(=O)O)CC(=O)O)c1`
6.43

###

Experiment: Mg2+ dissociation constant in Mg2+/EGTA buffers
Settings: read-out: Mg^2+ dissociation constant; 25°, 0.1-0.15 M ionic strength
measured quantity: pKd
Keep it numeric: pKd is minus log10 of the concentration in mol/L.

Return the recorded pKd value; entry: `Cc1ccc(N(CC(=O)O)CC(=O)O)c(OCCOc2cc(-c3c4cc(Cl)c(=O)cc-4oc4cc(O)c(Cl)cc34)ccc2N(CC(=O)O)CC(=O)O)c1`
2.05

###

Test: Absorbance and fluorescence properties in the presence and absence of Ca2+
Assay type: physicochemical
Conditions: excess Ca
Measured Fluorescence quantum efficiency, excess Ca accompanies every entry in the list below.

Cc1ccc(N(CC(=O)O)CC(=O)O)c(OCCOc2cc(-c3c4ccc(=[N+](C)C)cc-4oc4cc(N(C)C)ccc34)ccc2N(CC(=O)O)CC(=O)O)c1 .102

Return the recorded Fluorescence quantum efficiency, excess Ca value; entry: `Cc1ccc(N(CC(=O)O)CC(=O)O)c(OCCOc2cc(-c3c4cc(Cl)c(=O)cc-4oc4cc(O)c(Cl)cc34)ccc2N(CC(=O)O)CC(=O)O)c1`
.183

Return the recorded Fluorescence quantum efficiency, excess Ca value; entry: `Cc1ccc(N(CC(=O)O)CC(=O)O)c(OCCOc2cc(-c3c4ccc(=O)cc-4oc4cc(O)ccc34)c(O)cc2N(CC(=O)O)CC(=O)O)c1`
.014

Return the recorded Fluorescence quantum efficiency, excess Ca value; entry: `Cc1ccc(N(CC(=O)O)CC(=O)O)c(OCCOc2cc(-c3c4ccc(=O)cc-4oc4cc(O)ccc34)ccc2N(CC(=O)O)CC(=O)O)c1`
.125

###

Experiment: Absorbance and fluorescence properties in the presence and absence of Ca2+
Type: physicochemical
Conditions: excess Ca
measured quantity: Fluorescence maxima, emission, with excess Ca (nm)
Your answer is read as nm, so omit the unit and give the number.

Please review the entries below; each comes with its answer.
compound	result number
Cc1ccc(N(CC(=O)O)CC(=O)O)c(OCCOc2cc(-c3c4ccc(=O)cc-4oc4cc(O)ccc34)ccc2N(CC(=O)O)CC(=O)O)c1 [fluo-2]	518
Cc1ccc(N(CC(=O)O)CC(=O)O)c(OCCOc2cc(-c3c4ccc(=[N+](C)C)cc-4oc4cc(N(C)C)ccc34)ccc2N(CC(=O)O)CC(=O)O)c1 [rhod-2]	576
Cc1ccc(N(CC(=O)O)CC(=O)O)c(OCCOc2cc(-c3c4cc(Cl)c(=O)cc-4oc4cc(O)c(Cl)cc34)ccc2N(CC(=O)O)CC(=O)O)c1 [fluo-3]	526

Query compound follows.
Return the recorded Fluorescence maxima, emission, with excess Ca value; entry: Cc1ccc(N(CC(=O)O)CC(=O)O)c(OCCOc2cc(-c3c4ccc(=O)cc-4oc4cc(O)ccc34)c(O)cc2N(CC(=O)O)CC(=O)O)c1 [fluo-1]
521
